- assay target: MERTK (UniProt Q12866)
- Sequence (Q12866 whole entry, looked up): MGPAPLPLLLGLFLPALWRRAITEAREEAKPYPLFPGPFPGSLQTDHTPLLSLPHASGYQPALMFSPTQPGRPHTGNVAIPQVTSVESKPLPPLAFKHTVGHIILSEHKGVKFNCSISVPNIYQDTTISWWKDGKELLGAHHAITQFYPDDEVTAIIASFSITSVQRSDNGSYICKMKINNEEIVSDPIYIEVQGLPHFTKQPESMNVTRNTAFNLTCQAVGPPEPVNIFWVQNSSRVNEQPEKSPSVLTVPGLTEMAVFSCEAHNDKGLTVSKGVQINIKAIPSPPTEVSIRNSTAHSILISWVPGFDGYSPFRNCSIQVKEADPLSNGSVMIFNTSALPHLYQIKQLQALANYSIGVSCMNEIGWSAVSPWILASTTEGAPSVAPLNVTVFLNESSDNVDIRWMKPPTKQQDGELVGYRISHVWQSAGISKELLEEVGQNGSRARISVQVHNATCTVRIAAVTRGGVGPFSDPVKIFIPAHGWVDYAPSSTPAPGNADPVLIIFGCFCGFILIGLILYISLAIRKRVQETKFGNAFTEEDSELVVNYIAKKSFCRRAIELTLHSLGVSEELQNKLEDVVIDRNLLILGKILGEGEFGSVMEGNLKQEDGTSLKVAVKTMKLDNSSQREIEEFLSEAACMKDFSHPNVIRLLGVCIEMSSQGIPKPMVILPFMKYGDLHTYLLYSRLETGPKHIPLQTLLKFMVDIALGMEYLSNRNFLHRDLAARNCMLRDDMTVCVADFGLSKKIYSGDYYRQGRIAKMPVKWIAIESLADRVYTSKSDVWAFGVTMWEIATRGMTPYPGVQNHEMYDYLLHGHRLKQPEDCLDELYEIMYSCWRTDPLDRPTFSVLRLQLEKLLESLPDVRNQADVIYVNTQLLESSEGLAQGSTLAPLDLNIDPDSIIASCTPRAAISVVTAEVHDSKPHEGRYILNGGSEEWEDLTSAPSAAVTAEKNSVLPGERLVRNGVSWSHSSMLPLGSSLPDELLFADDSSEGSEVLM
- experimental details: phosphorylation enrichment, bacterial display (enrichment ratio); higher = better substrate or ligand; peptides without Tyr show the background;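 also: 11-residue human phosphosite peptides and single-mutation variants displayed on the E. coli surface, counted by deep sequencing, each peptide's frequency after selection divided by its frequency in the unselected input library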;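 also: frequency after pTyr selection over input frequency; kinase dosed for 20-30% of maximal phosphorylation in three min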
Outcome label depends on phosphorylation enrichment relative to 0.4: at/above gives Yes, below gives No.

- construct sequence: "LSSETYVKSFT [F5_Y2149_M2148T_YF]"
  assay target: "MERTK (UniProt Q12866)"
  classification: "No"
- construct sequence: "ELTAKYLNFFR [P3H4_Y181_Q186R_YF]"
  assay target: "MERTK (UniProt Q12866)"
  classification: "Yes"
- construct sequence: "STFVPCEIKVQ [L1CAM_Y784_Y784C]"
  assay target: "MERTK (UniProt Q12866)"
  classification: "No"
- construct sequence: "RREQDYTNLPS [CSF1R_Y923_R921Q]"
  assay target: "MERTK (UniProt Q12866)"
  classification: "Yes"
- construct sequence: "HTVVSYAEVRA [CLOCK_Y378]"
  assay target: "MERTK (UniProt Q12866)"
  classification: "Yes"
- construct sequence: "PRQRRYVYYYS [PTEN_Y174_S170R]"
  assay target: "MERTK (UniProt Q12866)"
  classification: "Yes"

----------
- assay target: Jak2 (UniProt O60674)
- Sequence (O60674 whole entry, looked up): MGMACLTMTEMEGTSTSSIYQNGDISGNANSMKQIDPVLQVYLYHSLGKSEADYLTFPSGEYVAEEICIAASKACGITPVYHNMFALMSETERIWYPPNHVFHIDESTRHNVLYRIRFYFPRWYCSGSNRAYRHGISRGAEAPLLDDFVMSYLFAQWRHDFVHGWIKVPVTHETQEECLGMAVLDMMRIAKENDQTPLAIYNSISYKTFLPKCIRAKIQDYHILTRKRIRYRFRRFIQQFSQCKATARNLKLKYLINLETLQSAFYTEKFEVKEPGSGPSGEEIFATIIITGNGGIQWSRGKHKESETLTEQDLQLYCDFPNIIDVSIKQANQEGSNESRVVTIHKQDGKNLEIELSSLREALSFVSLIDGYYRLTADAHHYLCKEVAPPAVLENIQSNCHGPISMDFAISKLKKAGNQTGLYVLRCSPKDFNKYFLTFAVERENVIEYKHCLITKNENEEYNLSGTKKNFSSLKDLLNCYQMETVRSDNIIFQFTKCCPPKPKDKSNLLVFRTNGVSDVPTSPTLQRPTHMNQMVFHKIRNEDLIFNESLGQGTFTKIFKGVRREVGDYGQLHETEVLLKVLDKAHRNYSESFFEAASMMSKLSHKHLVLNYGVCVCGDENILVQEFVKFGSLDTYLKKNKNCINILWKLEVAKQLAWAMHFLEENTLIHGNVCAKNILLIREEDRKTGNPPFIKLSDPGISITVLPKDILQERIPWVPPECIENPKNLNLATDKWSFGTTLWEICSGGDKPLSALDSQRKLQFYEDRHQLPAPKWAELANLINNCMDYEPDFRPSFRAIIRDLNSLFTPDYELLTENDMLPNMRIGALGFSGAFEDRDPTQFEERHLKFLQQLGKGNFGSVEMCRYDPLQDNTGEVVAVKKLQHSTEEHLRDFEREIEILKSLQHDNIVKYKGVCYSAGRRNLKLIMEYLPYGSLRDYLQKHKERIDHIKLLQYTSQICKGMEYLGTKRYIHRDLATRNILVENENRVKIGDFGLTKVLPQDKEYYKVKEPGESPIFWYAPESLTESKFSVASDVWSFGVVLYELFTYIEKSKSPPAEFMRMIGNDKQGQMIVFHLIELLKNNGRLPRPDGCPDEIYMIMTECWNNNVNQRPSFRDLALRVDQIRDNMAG
- experimental details: phosphorylation enrichment, bacterial display (enrichment ratio); higher = better substrate or ligand; peptides without Tyr show the background

- construct sequence: "GIKAAYEAERG [LMNA_Y81_L85R]"
  phosphorylation enrichment: 0.517
- construct sequence: "YLEEEYVKAVG [TF_Y674_G671E]"
  phosphorylation enrichment: 1.18
- construct sequence: "FRNSLYAPDYS [FAM92A_Y226]"
  phosphorylation enrichment: 0.58
- construct sequence: "SAAAIYMVRHP [PMP22_Y117_T118M]"
  phosphorylation enrichment: 0.587
- construct sequence: "SRPHLYGTPSR [ADGRE2_Y670]"
  phosphorylation enrichment: 0.588
- construct sequence: "EEVKAYLDFRE [CHAC2_Y78]"
  phosphorylation enrichment: 1.35
- construct sequence: "QEIATYRRLPE [KRT16_Y417_L421P]"
  phosphorylation enrichment: 0.73
- construct sequence: "VYSSDYFSFVL [USP24_Y2138]"
  phosphorylation enrichment: 5.25
- construct sequence: "NGSKAYAYVHF [PABPC5_Y147_G146A]"
  phosphorylation enrichment: 0.796
- construct sequence: "FRDALYKFMVD [PHEX_Y250_YF]"
  phosphorylation enrichment: 1.23
- construct sequence: "DEFLEYRRIVG [FAM221A_Y20_YF]"
  phosphorylation enrichment: 0.964
- construct sequence: "HNVPIYEGFGL [ACTA1_Y168_A172G_YF]"
  phosphorylation enrichment: 0.575
- construct sequence: "SSMIDYNPLEK [MYOC_Y479]"
  phosphorylation enrichment: 1.07
- construct sequence: "APVEDYGGGGG [B4GALT6_Y382_I379V]"
  phosphorylation enrichment: 0.62
- construct sequence: "IEPGIYIPEDD [XPNPEP3_Y455]"
  phosphorylation enrichment: 1.24
- construct sequence: "KALSLYTKLMN [STAM_Y371_E366K]"
  phosphorylation enrichment: 1.14
- construct sequence: "FSPFDYQPCLA [TNS1_Y798_YF]"
  phosphorylation enrichment: 1.21
- construct sequence: "LRGEDYGFSVD [PRKCI_Y430]"
  phosphorylation enrichment: 1
- construct sequence: "SYCYRYRCAAR [SUMF1_Y344]"
  phosphorylation enrichment: 0.728
- construct sequence: "SVTCTYSPALH [TP53_Y126_N131H]"
  phosphorylation enrichment: 1.23
- construct sequence: "NAGAFYVLSTL [FLVCR2_Y325_A326V]"
  phosphorylation enrichment: 0.995
- construct sequence: "YQLENCCNGGG [INS_Y108_Y108C]"
  phosphorylation enrichment: 0.763
- construct sequence: "IHHIDYFKETT [FGFR1_Y653_K656E_YF]"
  phosphorylation enrichment: 0.692
- construct sequence: "CTTIQYNFMCN [TP53_Y234_H233Q_YF]"
  phosphorylation enrichment: 0.853
- construct sequence: "KVGNGYISAAE [CALM2_Y100_D96V]"
  phosphorylation enrichment: 0.485
- construct sequence: "PLGVLYKVKVY [PTS_Y128_V124L]"
  phosphorylation enrichment: 1.19
- construct sequence: "FQGRRYDCDCD [CRYGS_Y21]"
  phosphorylation enrichment: 0.751
- construct sequence: "CGADSYEMEED [EGFR_Y316]"
  phosphorylation enrichment: 1.08
- construct sequence: "FENGEYIVRQG [PRKG1_Y247_I249V_YF]"
  phosphorylation enrichment: 0.685
- construct sequence: "DMGAQYAAASR [ARID1B_Y483_P488R]"
  phosphorylation enrichment: 0.49
- construct sequence: "CDGKEYDPVEA [MAPRE2_Y167_Y162C]"
  phosphorylation enrichment: 1.54
- construct sequence: "AYGNLYGSRKQ [YIPF7_Y59]"
  phosphorylation enrichment: 0.516
- construct sequence: "FDKEFYSVHNK [MET_Y1235_YF]"
  phosphorylation enrichment: 0.866
- construct sequence: "LFEDCYLLGTS [ASS1_Y87_R86C_YF]"
  phosphorylation enrichment: 1.39
- construct sequence: "TFEYRYLEDQD [CNOT3_Y746_R750Q]"
  phosphorylation enrichment: 0.916
- construct sequence: "KAIMIYVSSFF [ACTN4_Y260_T259I_YF]"
  phosphorylation enrichment: 0.925
- construct sequence: "TSFSGYRFHRH [NKAPL_Y94_YF]"
  phosphorylation enrichment: 0.546
- construct sequence: "SSENPYATIKD [MEGF10_Y1030]"
  phosphorylation enrichment: 0.876
- construct sequence: "GGQSVYHVNLH [HINT1_Y109_H112N]"
  phosphorylation enrichment: 0.491
- construct sequence: "RSRQIYDAFIM [GRK3_Y109_YF]"
  phosphorylation enrichment: 0.359
- construct sequence: "EEEPVYKAEPE [HCLS1_Y360_E361K]"
  phosphorylation enrichment: 1.36
- construct sequence: "GMRHGYGVRQS [JPH2_Y141]"
  phosphorylation enrichment: 0.457
- construct sequence: "FLNSSYINIST [IL23R_Y178_T175N_YF]"
  phosphorylation enrichment: 0.663
- construct sequence: "AASTDYYKRGD [PDHA1_Y242]"
  phosphorylation enrichment: 0.811
- construct sequence: "PAQAAYQKVVA [HBB_Y131_V127A]"
  phosphorylation enrichment: 0.59
- construct sequence: "CNRADYSKLAS [GNE_Y22_P27S]"
  phosphorylation enrichment: 0.621
- construct sequence: "SVLVPYEPPEV [TP53_Y220_V217L]"
  phosphorylation enrichment: 1.32
- construct sequence: "FRDALYKFIVD [PHEX_Y250_M253I_YF]"
  phosphorylation enrichment: 0.919
- construct sequence: "SASRSYSRSRS [SRRM4_Y549]"
  phosphorylation enrichment: 0.58
- construct sequence: "SIDLGYHKDLQ [NF1_Y1169_G1166D]"
  phosphorylation enrichment: 0.856
- construct sequence: "CTTILYNFMCN [TP53_Y234_H233L_YF]"
  phosphorylation enrichment: 0.957
- construct sequence: "EDGRLYAVKCS [PKMYT1_Y136_R140C]"
  phosphorylation enrichment: 0.861
- construct sequence: "SLDLSYFPTSS [EMD_Y181_YF]"
  phosphorylation enrichment: 2.93
- construct sequence: "CNTIHYNYMCN [TP53_Y234_T230N]"
  phosphorylation enrichment: 0.799
- construct sequence: "MEIHAYHKLLE [LMNA_Y376_R377H]"
  phosphorylation enrichment: 1.03
- construct sequence: "NVLPEYKLQAP [KCNH2_Y388_D383N]"
  phosphorylation enrichment: 0.813
- construct sequence: "YQQLFYLLQIN [IQGAP2_Y890_T894I]"
  phosphorylation enrichment: 1.67

----------
- assay target: FGFR3 (UniProt P22607)
- Sequence (P22607 whole entry, looked up): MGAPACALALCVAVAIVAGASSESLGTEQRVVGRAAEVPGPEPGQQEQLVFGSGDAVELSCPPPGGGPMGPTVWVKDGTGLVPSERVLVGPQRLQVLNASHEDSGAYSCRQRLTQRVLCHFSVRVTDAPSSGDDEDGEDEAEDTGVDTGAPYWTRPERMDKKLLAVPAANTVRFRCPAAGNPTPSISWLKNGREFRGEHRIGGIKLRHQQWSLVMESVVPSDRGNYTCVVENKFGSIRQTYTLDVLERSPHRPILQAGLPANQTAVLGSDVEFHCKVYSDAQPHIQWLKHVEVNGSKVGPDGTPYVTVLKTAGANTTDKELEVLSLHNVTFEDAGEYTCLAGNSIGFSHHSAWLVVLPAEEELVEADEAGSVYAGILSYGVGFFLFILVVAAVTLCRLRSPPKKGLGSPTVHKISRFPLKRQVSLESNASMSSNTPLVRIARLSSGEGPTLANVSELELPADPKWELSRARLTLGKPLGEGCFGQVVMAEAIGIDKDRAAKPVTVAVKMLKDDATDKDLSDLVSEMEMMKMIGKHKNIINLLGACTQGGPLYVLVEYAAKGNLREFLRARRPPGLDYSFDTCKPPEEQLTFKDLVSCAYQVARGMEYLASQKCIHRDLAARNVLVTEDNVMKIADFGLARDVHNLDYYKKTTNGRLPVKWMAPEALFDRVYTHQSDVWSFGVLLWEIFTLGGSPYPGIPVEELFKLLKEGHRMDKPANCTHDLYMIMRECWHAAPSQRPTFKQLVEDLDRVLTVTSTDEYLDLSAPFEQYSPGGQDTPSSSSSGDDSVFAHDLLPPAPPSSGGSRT
- experimental details: phosphorylation enrichment, bacterial display (enrichment ratio); higher = better substrate or ligand; peptides without Tyr show the background

- construct sequence: "FFRKVYHLASV [RBL1_Y796_YF]"
  phosphorylation enrichment: 0.545
- construct sequence: "IEPGIYIPEDD [XPNPEP3_Y455]"
  phosphorylation enrichment: 0.902
- construct sequence: "QEGPEYWDQQT [HLA-A_Y83_E87Q]"
  phosphorylation enrichment: 1.21
- construct sequence: "LTSVKYLLSAT [GSDMC_Y26_P23S]"
  phosphorylation enrichment: 0.541
- construct sequence: "NTQRPHYKGGG [TYROBP_Y111_Y111H]"
  phosphorylation enrichment: 0.486
- construct sequence: "ALTDNYMYLVI [HAGH_Y61]"
  phosphorylation enrichment: 6.43
- construct sequence: "NTGDFCDLFGG [PTPN11_Y63_Y63C_YF]"
  phosphorylation enrichment: 0.653
- construct sequence: "LKRIAYFLCLL [LGI1_Y21]"
  phosphorylation enrichment: 0.741
- construct sequence: "DLEKTYNTFRS [B4GALNT2_Y538_A533D_YF]"
  phosphorylation enrichment: 0.55
- construct sequence: "DLQDEYDFKCK [STAT1_Y170]"
  phosphorylation enrichment: 0.772
- construct sequence: "PLLTDYSPQLQ [OTC_Y345_S340P]"
  phosphorylation enrichment: 1.19
- construct sequence: "QLYGPYLRIHA [BSCL2_Y213_A212P]"
  phosphorylation enrichment: 0.73
- construct sequence: "NMSRIYSTAKV [ACE_Y151]"
  phosphorylation enrichment: 0.448
- construct sequence: "EDDIIYTQDFM [STK11_Y362_T367M]"
  phosphorylation enrichment: 1.25
